B1: NR2F2 (parent)
chain: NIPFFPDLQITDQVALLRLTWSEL

# Variants of: B1
# PROTOCOL_TEXT: protein stability index of a GFP-peptide fusion (GPS, HEK-293T) (PSI 1-6); higher = more stable;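 also: lentivirally expressed fusions sorted by FACS into six bins by GFP to DsRed ratio, PSI derived from sequencing read proportions per bin multiplied by bin number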
# CONDITION_PARAMETERS: c terminus: a fixed tail appended
Record T whenever protein stability index is at 2 or higher; record F when lower.

W21Y    F
T11I    T
F4K    T
I10R    F
E23G    T
P3I    T

Enquiry: Does the variant `T20H` have recorded protein stability index that is 2 or more?
Return: T
